# System: Human NCI-H460 NSCLC
# PROTOCOL TEXT: Anti-proliferative activity, NCI-H460, 24 h exposure + 48 h recovery, SRB
# Type: cell-based
# CONDITION NOTES: 48 h recovery in drug-free medium, SRB (Table 1)
pIC50: −log10 of the molar value.
PROPERTY MEASURED: pIC50

Prompt: Determine its reported pIC50: "O=C(O)/C=C/c1ccc(-c2ccc(OCC(=O)NO)c(C34CC5CC(CC(C5)C3)C4)c2)cc1"
Completion: ≥ 6.30

* * *

# Test system: B16-Luc (Melanoma)
# PROTOCOL TEXT: Anti-proliferative activity, B16-Luc, 72 h, SRB
# Type: cell-based, mouse
# CONDITION NOTES: read-out: B16-Luc (Melanoma) IC50 ± SD
PROPERTY MEASURED: pIC50
Convention used: pIC50 is expressed as -log10 of the molar concentration.

Prompt: Determine its reported pIC50: CC(Oc1ccc(-c2ccc(/C=C/C(=O)O)cc2)cc1C12CC3CC(CC(C3)C1)C2)C(=O)NO (stereo not shown) [GEM144]
Completion: 6.43
